This section presents compounds with their documented IC50 ± SD, CUPRAC values.
test: CUPRAC assay; settings: pH 7.0, 450 nm
Numeric answer only, unit µg/mL assumed.

For orientation, consider the following solved cases.
CCCCCCn1c(Cc2cccc(Cl)c2)n[nH]c1=S ... 30.92
Cc1ccc(-n2c(-c3cccc(Cl)c3)n[nH]c2=S)cc1 ... 16.04
O=C1O[C@H]([C@@H](O)CO)C(O)=C1O [Ascorbic acid, reference compound] ... 16.05

Continue with the next compound.
Any idea what its IC50 ± SD, CUPRAC is? The compound is CCCCCCn1c(-c2cccc(Cl)c2)n[nH]c1=S
22.28

----------
molecular target: hCA I (Homo sapiens, UniProt P00915); construct: made in house; assay: Carbonic anhydrase inhibition, stopped flow CO2 hydration; type: biochemical; details: 1 h incubation
Sequence (P00915 whole entry): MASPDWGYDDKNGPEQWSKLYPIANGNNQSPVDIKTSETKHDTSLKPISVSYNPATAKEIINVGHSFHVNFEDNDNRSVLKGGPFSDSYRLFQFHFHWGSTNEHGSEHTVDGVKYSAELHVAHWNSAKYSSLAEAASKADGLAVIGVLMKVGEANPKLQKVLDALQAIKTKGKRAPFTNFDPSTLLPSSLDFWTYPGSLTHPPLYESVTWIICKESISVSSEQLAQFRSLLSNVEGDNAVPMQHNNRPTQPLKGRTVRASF
Ki: recorded values

Cc1ccc(-n2c(-c3cccc(Cl)c3)n[nH]c2=S)cc1 ... 2190 nM

Lab note: next compound to report on.
Please state recorded Ki (tested on hCA I (Homo sapiens, UniProt P00915)) of CCCCCCn1c(Cc2cccc(Cl)c2)n[nH]c1=S
> 100000 nM

----------
molecular target: hCA II (Homo sapiens, UniProt P00918); construct: made in house; assay: Carbonic anhydrase inhibition, stopped flow CO2 hydration; assay type: biochemical; conditions: incubation time not given; read-out: Ki CA II
property.measured: Ki

CCCCCCn1c(-c2cccc(Cl)c2)n[nH]c1=S [TP-315] ... > 100 µM

For the next question, use this molecule.
Suppose we examine the molecule CCCCCCn1c(Cc2cccc(Cl)c2)n[nH]c1=S [TP-427] ; what Ki value has been reported?
> 100 µM
